# System: MS2 coat protein
# experiment notes: apparent Kd, MS2 coat protein; higher = weaker binding; RNA-MaP array
# measurement setup: ligand present: flavin mononucleotide; designed as: OFF switch for flavin mononucleotide
Measured apparent Kd, listed per entry.
measured parameter: apparent Kd (nM)

>>> endpoint_result("GGAAUGUCGUAGGAUAUAUGAUCUGUAAGGUAGAUAGAAGGACGAACAUGAGGAUCACCCAUGUGGAGGAUGUU")
27.5
>>> endpoint_result("UAGAAACUCGUAAGGAUAUCCGAAGAGAAAAUGAGGGAGAAGGUACAUGAGGAUCACCCAUGUAUGAAAUGGAC")
7.98
>>> endpoint_result("GCCCGUUAUUAGAAGGGUAUUCGGAUAUGCAUUCCUUACAUGAGGAUCACCCAUGUACCGCGAGUACAGGAUAUAAAACCGCCA")
69.7
>>> endpoint_result("CUUAAGUGAGGAUAUCGUGGGACUACAUUAAUGAGAAUCAGCGAGAAGGCACAUGAGGAUCACCCAUGUGGUAA")
76.2

Origin of values: the EternaBench riboswitch data
